Assay: Ratio of IC50/Ki was determined
measure.name: Ratio

1. CC(C)[C@H](NC(=O)c1ccc2ccccc2n1)C(=O)N[C@@H](Cc1ccccc1)[C@H](O)CN1C[C@H]2CCCC[C@H]2C[C@H]1C(=O)NC(C)(C)C	98
2. CC(C)(C)NC(=O)[C@@H]1C[C@@H]2CCCC[C@@H]2CN1C[C@@H](O)[C@H](Cc1ccccc1)NC(=O)[C@@H](NC(=O)c1ccc2ccccc2n1)C(C)(C)S(C)(=O)=O	28
3. CC(C)(C)NC(=O)[C@@H]1C[C@@H]2CCCC[C@@H]2CN1C[C@@H](O)[C@H](Cc1ccccc1)NC(=O)[C@@H](NC(=O)OCc1ccccc1)C(C)(C)S(C)(=O)=O	68
4. CSC(C)(C)[C@H](NC(=O)c1ccc2ccccc2n1)C(=O)N[C@@H](Cc1ccccc1)[C@H](O)CN1C[C@H]2CCCC[C@H]2C[C@H]1C(=O)NC(C)(C)C	10
5. CC(C)(C)NC(=O)[C@@H]1C[C@@H]2CCCC[C@@H]2CN1C[C@@H](O)[C@H](Cc1ccccc1)NC(=O)[C@H](CS(C)(=O)=O)NC(=O)c1ccc2ccccc2n1	195
